This section presents compounds with their documented growth values.
Test system: RPMI-8226 leukemia
Method description: NCI-60 one-dose screen, 48 h (100 = growth as untreated, 0 = no growth, -100 = all killed)
Test conditions: 10 µM unless noted
The panel holds about 83,000 compounds, 20% with a hit somewhere; the sample as a whole holds those more often.
The response must be a number in % with no trailing unit.

Below: 2 compounds and their reported growth.
INSERT INTO results (compound, measured_endpoint, units_of_measure, numeric_readout) VALUES
  ('CC(=O)O[C@H]1C[C@H](O[C@H]2[C@@H](O)C[C@H](O[C@H]3[C@@H](O)C[C@H](O[C@H]4CC[C@@]5(C)C(CCC6C5C[C@@H](O)[C@]5(C)[C@@H](C7=CC(=O)OC7)CC[C@]65O)C4)O[C@@H]3C)O[C@@H]2C)O[C@H](C)[C@H]1O[C@@H]1O[C@H](CO)[C@@H](O)[C@H](O)[C@H]1O (stereo partly drawn)', 'growth', '%', -0.309),
  ('CCC[CH2][Sn]([CH2]CCC)([CH2]CCC)[O]C(=O)c1ccc(Cl)cc1Cl', 'growth', '%', -29.7);

Fill in the blank: the reported growth of "CC(=O)N(C)C1=Nc2ccc(Cl)cc2C(c2ccccc2)=[N+]([O-])C1" is ____. 113

----------
System: HL-60(TB) leukemia
Method description: NCI-60 one-dose screen, 48 h
Test conditions: 10 µM unless noted
The panel holds about 83,000 compounds, 20% with a hit somewhere; the sample as a whole holds those more often. The source made the active and inactive calls. The calls were made as follows: active = growth percent below 10; inactive = the rest.
# valid calls are yes for active, no for inactive; nothing else

Please let me know the test result on file for "CCOC(=O)Nc1ccc2c(c1)/C(=N\NC(=S)NC)c1ccccc1-2" . no

Check "COc1cccc2c(=O)c3c(sc12)c(NCCCNCCO)nc1ccccc13" too. no

Check "COc1cc(-c2cc(-c3nc4cc(Cl)c(Cl)cc4[nH]3)[nH]n2)cc(OC)c1OC" too. no

Check "C=C1C(=O)O[C@H]2[C@H]1CC/C(Cn1cc(Cn3ccc4cc(Cl)ccc43)nn1)=C\CC[C@@]1(C)O[C@@H]21" too. yes

Check "N#Cc1c(-c2ccc(Cl)cc2)nc2c(c(-c3ccccc3)nn2-c2ccccc2)c1-c1ccc(O)cc1" too. no

Check "Fc1ccc2[nH]cc(-c3nc(-c4ccsc4)cs3)c2c1" too. no

Check "CCOCCNc1ccc(S(=O)(=O)c2ccc(N)cc2)cc1N" too. no

Check "CCOC(=O)c1nnn(-c2no[n+]([O-])c2-c2ccc(OC)cc2)c1COc1cccc2cccnc12" too. yes

----------
System: NCI-H226 lung
Method description: NCI-60 one-dose screen, 48 h (100 = growth as untreated, 0 = no growth, -100 = all killed)
Test conditions: 10 µM unless noted
This is part of a sample that, as a whole, favours compounds with a hit. Of some 83,000 tested, about 20% had one in any assay.
Measured endpoint: growth (%)
The response must be a number in % with no trailing unit.

Fill in the blank: the reported growth of "N#[N+]c1cnc([O-])[nH]c1=O" is ____. 88

Check "CC(C)[C@]12O[C@H]1[C@@H]1O[C@]13[C@]1(O[C@H]1C[C@H]1C4=C(CC[C@@]13C)C(=O)OC4)[C@@H]2OC(=O)OC(C)(C)C" too. 12.6

Check Cc1ccc(N)cc1[As]=[As]c1cc(N)ccc1C (stereo not given) too. -93.2

----------
Tested on: HL-60(TB) leukemia
Method description: NCI-60 one-dose screen, 48 h
Test conditions: 10 µM unless noted
Compounds without any hit were thinned out: in the full panel of roughly 83,000, 20% have a hit. The source made the active and inactive calls. How the source made its calls: active means growth percent below 10; inactive means the rest.
# valid calls are active, inactive; nothing else

Examples from the recorded data:
INSERT INTO measurements (compound, class_name) VALUES
  ('CC(=O)Nc1c(Cl)cc2c(c1Cl)Cc1cc([N+](=O)[O-])ccc1-2', 'inactive'),
  ('COc1cc(-c2ccc3c(c2)NC(=O)/C3=C\c2ccc[nH]2)ccc1O', 'active'),
  ('COc1cc(C(=O)c2cc(C)c3[nH]c4ccc(Cl)cc4c3c2C)cc(OC)c1OC', 'active'),
  ('C#CC(OC(=O)N(C)C)(c1ccccc1)c1ccc(F)cc1 (stereo unspecified)', 'inactive'),
  ('Cc1ccc(C(c2c(O)c3cc(Br)ccc3[nH]c2=O)c2c(O)c3cc(Br)ccc3[nH]c2=O)cc1', 'inactive'),
  ('CCOC(=O)c1c(-c2ccc(Cl)cc2)c(C#N)c(=O)n(-c2ccccc2CC)c1N', 'inactive');

Please let me know the test result on file for "O=c1c2cc(F)ccc2sc2c(N3CCNCC3)nc3ccc(F)cc3c12" . active

Check "C=C(C)[C@@H]1CC[C@]2(C(=O)N3CCN(C)CC3)CC[C@]3(C)[C@H](CC[C@@H]4[C@@]5(C)CC[C@H](OCCC#N)C(C)(C)[C@@H]5CC[C@]43C)[C@@H]12" too. inactive

Check "NC(=O)SCC(=O)Nc1ccccc1-c1ccccc1" too. inactive

Check "Cc1nn(-c2ccccc2)c(-n2ccnc2)c1/C=N/Nc1nc(-c2ccc(Cl)c(Cl)c2)cs1" too. inactive

Check "c1ccc(CN=C(NCc2ccccc2)NCc2ccccc2)cc1" too. inactive

Check "NC(=O)c1cc(I)ccc1NC(=O)COc1ccc(Cl)cc1Cl" too. inactive

Check "C#CCNC(=O)[C@]1(C)CCC[C@@]2(C)[C@H]1CC=C1C=C(C(C)C)CC[C@@H]12" too. inactive

Check "C(=C1c2ccccc2-c2ccccc21)c1ccccn1" too. inactive

Check CC(=O)NC1=C(C#N)C(c2ccccc2Cl)c2c(ccc3ccccc23)O1 (stereo unspecified) too. inactive

Check "O=[N+]([O-])c1ccc(N2CCN=N2)cc1" too. inactive

Check "O=C(CN1CCN(c2cc3c(cc2F)c(=O)c(C(=O)N/N=C/c2ccccc2)cn3C2CC2)CC1)N/N=C\c1ccccc1" too. inactive

Check "COc1ccc(-c2nnc(COc3ccc(NC(=O)Nc4ccccc4)cc3F)o2)cc1" too. inactive

Check COc1c(C2CC(=O)Nc3c2c(C)nn3-c2nc3ccccc3[nH]2)cc2c(c1OC)OCO2 (stereo unspecified) too. inactive

Check "N#Cc1c(-c2ccc(F)cc2)nc(N=Nc2c(O)[nH]c3ccccc23)nc1N1CCOCC1" too. inactive

Check "Cn1cc(-c2nnc(-c3cn(C)c4ncccc34)s2)c2ccccc21" too. inactive

Check "O=C(COc1ccc(/C=C2\Oc3ccccc3C2=O)cc1)Nc1nc2ccccc2s1" too. active

----------
System: NCI-H522 lung
Method description: NCI-60 one-dose screen, 48 h (100 = growth as untreated, 0 = no growth, -100 = all killed)
Test conditions: 10 µM unless noted
About 83,000 compounds went through this panel and 20% of them were active in at least one assay; those are over-represented in the sample as a whole.
Note to self: values exactly at 70% are yes. So growth at or above 70% is yes, below is no.

Exam item: decide whether the reported growth for "CC(C)[C@]12O[C@H]1[C@@H]1O[C@]13[C@]1(O[C@H]1C[C@H]1C4=C(CC[C@@]13C)C(=O)OC4)[C@@H]2OC(=O)OC(C)(C)C" is at least 70%. no

Check CCC(CC)(c1ccccc1)C(OC(N)=O)c1ccccc1 (configuration not stated) too. yes

Check "[O]=[Sn]([CH]1CCCCC1)[CH]1CCCCC1" too. no

Check "O=C(O)c1nn(Cc2ccc(Cl)cc2)c2ccccc12" too. yes

Check "CC[C@@H](C)/C=C(C)/C=C/C(=O)c1c(O)c(-c2ccc(O)cc2)cn(O)c1=O" too. no

----------
This section presents molecules with their documented growth values.
Test system: MALME-3M melanoma
Method description: NCI-60 one-dose screen, 48 h (100 = growth as untreated, 0 = no growth, -100 = all killed)
Test conditions: 10 µM unless noted
This is part of a sample that, as a whole, favours compounds with a hit. Of some 83,000 tested, about 20% had one in any assay. The source made the active and inactive calls. How the source made its calls: active means growth percent below 10; inactive means the rest.

INSERT INTO assay_data (molecule, target_or_system, result) VALUES
  ('CC12CC[C@H](O)C=C1/C(=N/O)CC1C2CCC2(C)C1CC[C@@H]2O (some centres undefined)', 'MALME-3M melanoma', '80.3% (inactive)'),
  ('c1ccc(-c2ccc3ccccc3[o+]2)cc1', 'MALME-3M melanoma', '101% (inactive)'),
  ('OC1(c2ccccc2F)c2ccccc2C2=NCCN21 (centres undefined)', 'MALME-3M melanoma', '97.2% (inactive)'),
  ('Fc1ccc(C2=NN(c3ccccc3)C(c3sc(N(CCCl)CCCl)nc3Cl)C2)cc1 (centres undefined)', 'MALME-3M melanoma', '102% (inactive)'),
  ('CCCCCCCCCCOc1ccc(C(=O)Oc2ccc(CSP3(=O)OCC4OC(n5ccc(=O)[nH]c5=O)C(F)C4OP(=O)(O)OCC4OC(n5cnc6c(N)ncnc65)C(F)C4O3)cc2)cc1 (centres undefined)', 'MALME-3M melanoma', '110% (inactive)');

Fill in the blank: the reported growth of N#C[Se]CCN1C(=O)C2C(C1=O)[C@H]1C=C[C@@H]2S1 (some centres undefined) is ____. -40.5% (active)

Check "Cc1cc(CCl)c(C)cc1CCl" too. 82.9% (inactive)

Check "C[C@@H]1CC[C@@H]2[C@@H]1[C@H](OC(=O)/C=C/C1CCCCC1)[C@]1(C3CCCCC3)C[C@@H](OC(=O)CO)[C@@]2(C)O1" too. 78.8% (inactive)

Check "O=C(NCc1ccc([N+](=O)[O-])cc1)Nc1ccc(S(=O)(=O)F)cc1" too. 78.7% (inactive)
